This section presents compounds with their documented OD after addition of 5 μM test article values.
target: human TLR2 (Homo sapiens, UniProt O60603); construct: host or cells: recombinant HEK-293-TLR cell lines (hTLR2, NFkB-SEAP reporter); assay: TLR2 reporter assay (HEK-293-TLR, SEAP); format: cell-based; conditions: 5 μM; SEAP reporter optical density
Sequence (O60603 21-784): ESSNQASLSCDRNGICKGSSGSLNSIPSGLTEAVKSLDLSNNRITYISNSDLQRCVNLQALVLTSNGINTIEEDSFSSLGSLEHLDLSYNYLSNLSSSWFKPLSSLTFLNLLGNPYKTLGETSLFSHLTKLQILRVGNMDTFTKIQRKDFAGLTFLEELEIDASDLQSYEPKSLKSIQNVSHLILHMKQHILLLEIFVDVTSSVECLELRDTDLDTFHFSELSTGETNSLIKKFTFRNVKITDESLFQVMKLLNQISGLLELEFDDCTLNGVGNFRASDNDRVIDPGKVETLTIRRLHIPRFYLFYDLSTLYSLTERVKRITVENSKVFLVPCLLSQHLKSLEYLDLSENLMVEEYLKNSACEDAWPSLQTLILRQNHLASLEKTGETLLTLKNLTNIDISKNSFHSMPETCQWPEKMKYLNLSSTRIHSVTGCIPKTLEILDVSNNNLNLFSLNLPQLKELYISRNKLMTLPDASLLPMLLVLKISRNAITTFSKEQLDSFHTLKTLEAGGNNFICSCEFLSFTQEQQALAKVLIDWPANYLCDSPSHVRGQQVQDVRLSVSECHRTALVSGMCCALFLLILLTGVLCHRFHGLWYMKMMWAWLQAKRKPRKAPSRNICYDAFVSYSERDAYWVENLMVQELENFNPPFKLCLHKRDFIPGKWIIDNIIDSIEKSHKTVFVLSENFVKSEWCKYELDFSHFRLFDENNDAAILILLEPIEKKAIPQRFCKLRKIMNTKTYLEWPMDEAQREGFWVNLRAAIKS

# compound, test system, OD after addition of 5 μM test article
measured = [
    ("CC[C@H]1OC(=O)[C@H](C)[C@@H](O[C@H]2CC(N(C)C)[C@H](O)C(C)O2)[C@H](C)[C@@H](O)[C@](C)(O)C[C@@H](C)C(=O)[C@H](C)[C@@H](O)[C@H]1C (stereo partly drawn)", "human TLR2 (Homo sapiens, UniProt O60603)", "−0.043"),
    ("CC[C@H]1OC(=O)[C@H](C)[C@@H](O[C@H]2C[C@@](C)(OC)[C@@H](O)[C@H](C)O2)[C@H](C)[C@@H](O[C@@H]2O[C@H](C)C[C@H](N(C)C)[C@H]2O)[C@](C)(O)C[C@@H](C)C(=O)[C@H](C)[C@@H](O)[C@]1(C)O [Erythromycin, reference compound]", "human TLR2 (Homo sapiens, UniProt O60603)", 0.035),
    ("CC[C@H]1OC(=O)[C@H](C)[C@@H](O[C@H]2C[C@@H](N(C)C)[C@H](O)[C@@H](C)O2)[C@H](C)[C@@H](O)[C@](C)(O)C[C@@H](C)CN(C)[C@H](C)[C@@H](O)[C@]1(C)O", "human TLR2 (Homo sapiens, UniProt O60603)", 0.111),
]
